Assay: Compound toxicity assay: inhibition of HeLa cell translation (3H-leucine incorporation)
Assay type: cell-based
Settings: human; Table IV compound; HeLa cells; read-out: Cytotoxicity 3H-Leu Assay IC50
Description: HeLa and Vero cell cultures were maintained in Eagles Minimal Essential Medium (EMEM) which was supplemented with glutamine, penicillin, streptomycin and 10% fetal calf serum (10% EMEM). Stock cultures of HSV-2 (strain MS available from ATCC VR-540) were grown in and harvested from Vero cells. Viral stocks were titered in Vero cells according to established procedures. HeLa cells were treated with inhibitory compound for 24 hours, after which levels of translational activity were assayed. […]
Readout Name: CC50 at 24 h (µg/mL)
Hi! Could you send only the number? It should be in µg/mL, unit omitted.

Noted for CCOC(=O)c1c(OC(=O)c2ccc[nH]2)c2ccccc2n(C)c1=O : its CC50 at 24 h reads 40

The measurements presented in this section are drawn from patent US5942522A.
